System: HT29 colon
protocol-details: NCI tumour cell line growth inhibition, 48 h
# binarize TGI: threshold 40 µM inclusive, high side Met, low side Not met

| molecule | group |
| --- | --- |
| Clc1cc2c(c(CSC3=NCN(CC4CC4)CN3)c1)OCOC2 | Met |
| C=C1C(=O)O[C@H]2[C@H]1CC/C(COC(=O)NCc1ccc(Cn3c(=O)sn(CCCCl)c3=O)cc1)=C\CC[C@@]1(C)O[C@@H]21 | Not met |
| CN1c2ccccc2N(C)C2C1N(C)c1ccccc1N2C (stereo unspecified) | Met |
| C=C=C(CC)C(C(=O)OC)N(CC)CC (stereo unspecified) | Met |
| COc1cc(OC)c2c(O)c3c(cc2c1)CC(C)(C)CC3=O | Met |
| Cc1sc(C)c(Cc2c(C)sc(C)c2CCl)c1CCl | Met |
| CCCCCC(=O)c1ccc2[nH]c3c(C)cc([N+](=O)[O-])c(C)c3c2c1 | Met |
| O=C1C=C(Br)C(=O)C12CCc1ccccc12 (stereo unspecified) | Met |
| COC(=O)c1sc(C(=O)OC)c2c1CSC2 | Met |
| CCOC(=O)C(=Cc1ccccc1[N+](=O)[O-])C(=O)OCC | Not met |
| CN(C)c1ccc(/C=C2\N=C(NN)NC2=O)cc1 | Met |

----------
Tested on: NCI-H460 lung
Classes used: y = active, n = inactive

| compound | measurement-target | group |
| --- | --- | --- |
| COc1cc(/C=C2\CC3C4CC=C5C[C@@H](OC(C)=O)CC[C@]5(C)C4CC[C@]3(C)C2=O)ccc1OCCCn1ccnc1 (stereo not given in full) | NCI-H460 lung | n |
| Cn1ncc2c(N)nc(N3CCCCC3)nc21 | NCI-H460 lung | n |
| CC[C@@]1(O)C(=O)NCc2c1cc1n(c2=O)Cc2cc3c(N)cccc3nc2-1 | NCI-H460 lung | y |
| O=C(Nc1ccc(Cl)cc1)c1ccc(NC2=C(Cl)C(=O)N(Cc3ccccc3)C2=O)cc1 | NCI-H460 lung | n |
| NC(=O)c1cc(Br)cc(C2CCCCC2)c1O | NCI-H460 lung | n |
| CC(C)c1ccc(C(=O)Nc2sc3c(c2C#N)CCC(=O)C3)cc1 | NCI-H460 lung | n |
| CN(C)CCCN1c2nc3ccccc3cc2Sc2cc3ccccc3nc21 | NCI-H460 lung | n |
| O=C(NCCCNc1cc(-c2cn(-c3ccccc3)nc2-c2cccc(O)c2)ccn1)c1ccccc1 | NCI-H460 lung | n |
| COc1cc2c3c(n(CCCNCCN)c(=O)c2cc1OC)-c1cc2c(cc1C3=O)OCO2 | NCI-H460 lung | n |
| N#Cc1c(-c2ccccc2)cc(-c2ccc(Nc3nc(Nc4ccc(Cl)cc4)nc(Nc4ccc(Cl)cc4)n3)cc2)nc1N | NCI-H460 lung | n |
| Clc1ccc2[nH]cc(-c3nc(-c4c[nH]c5ncccc45)cs3)c2c1 | NCI-H460 lung | n |
| NNc1cccc(/C=C/c2ccccc2)cc1=O | NCI-H460 lung | n |
| Cn1c(=O)c(Oc2ccccc2F)cc2cnc(NC3CCOCC3)nc21 | NCI-H460 lung | n |
| ClC(Cl)c1nc(-c2cccnc2)n2nc(-c3ccccc3)cc2n1 | NCI-H460 lung | n |
| O=S(=O)(NCC1CCC(CNc2ccc(Cl)cc2)CC1)c1ccc(-c2ccccc2)cc1 (stereo not given) | NCI-H460 lung | n |
